Test system: 786-O
Test Summary: Euclidean distance of Cell Painting phenotypic profile (signed KS, 77 features) to DMSO centroid (dimensionless distance); 5 or 10 uM (library dependent); higher = stronger phenotypic change vs DMSO (phenoactivity)
Study Conditions: 48 h
Measured Metric: Euclidean distance
Please reply with the number alone, leaving off any unit.

Here are 4 compounds together with their reported answers.
O=C1CCc2cc(OCCCCc3nnnn3C3CCCCC3)ccc2N1 :: 1.11
Cc1cc(C(C)Nc2ccccc2)c2nc(N3CCOCC3)cc(=O)n2c1 (centres undefined) :: 1.4
O=c1sn(-c2cccc3ccccc23)c(=O)n1Cc1ccccc1 :: 0.967
COc1cc2ncnc(Nc3ccc(Cl)cc3F)c2cc1OC :: 1.46

The compound CC(C)(C)C(=O)OCOP(=O)(COCCn1cnc2c(N)ncnc21)OCOC(=O)C(C)(C)C showed Euclidean distance equal to 2.81

The compound Cc1ccccc1C(C(=O)NC1CCCCC1)N(C(=O)Cn1ccnc1C)c1cccc(F)c1 (centres undefined) showed Euclidean distance equal to 1.02

The compound CC(C)(C)NS(=O)(=O)c1cncc(-c2cc(F)c3nc(N)nn3c2)c1 showed Euclidean distance equal to 0.676

The compound CC(C)Oc1ccc(-c2nn([C@@H](C)c3oc4ccc(F)cc4c(=O)c3-c3cccc(F)c3)c3ncnc(N)c23)cc1F showed Euclidean distance equal to 1.11

The compound NC(=O)N1c2ccccc2C=Cc2ccccc21 [Carbamazepine] showed Euclidean distance equal to 1.69

* * *

Test system: DU145
Test Summary: Euclidean distance of Cell Painting phenotypic profile (signed KS, 77 features) to DMSO centroid (dimensionless distance); 5 or 10 uM (library dependent); higher = stronger phenotypic change vs DMSO (phenoactivity)
Study Conditions: 48 h
Measured Metric: Euclidean distance
Please reply with the number alone, leaving off any unit.

Here are 2 compounds together with their reported answers.
C[C@H]1O[C@@H](O[C@H]2CC[C@@]3(C)[C@@H](CC[C@]4(C)[C@@H]3C=C[C@]35OC[C@@]6(CCC(C)(C)C[C@H]63)[C@H](O)C[C@]54C)[C@]2(C)CO)[C@H](O)[C@@H](O[C@@H]2O[C@H](CO)[C@@H](O)[C@H](O)[C@H]2O)[C@H]1O [Saikosaponin D] :: 5.79
CCN1CCN(Cc2ccc(Nc3ncc(F)c(-c4cc(F)c5nc(C)n(C(C)C)c5c4)n3)nc2)CC1 :: 5.66

The compound Cn1c(=O)c2c(ncn2CC(O)CO)n(C)c1=O (stereo not drawn) [Dyphylline] showed Euclidean distance equal to 0.59

* * *

Here the recorded Euclidean distance is given for each entry.
System: A549
Test Summary: Euclidean distance of Cell Painting phenotypic profile (signed KS, 77 features) to DMSO centroid (dimensionless distance); 5 or 10 uM (library dependent); higher = stronger phenotypic change vs DMSO (phenoactivity)
Study Conditions: 48 h
Counter-ions that a name gives are not always drawn.
Please reply with the number alone, leaving off any unit.

Nc1ccccc1NC(=O)c1ccc(CNC(=O)OCc2cccnc2)cc1 [Entinostat (MS-275)] :: 2.57
CCOC(=O)c1ccc(NC2CCCCC2)c(N)c1 [Ferrostatin-1 (Fer-1)] :: 1.54
Cc1ccc(NC(=O)c2ccc(CN3CCN(C)CC3)cc2)cc1Nc1nccc(-c2cccnc2)n1 [Imatinib Mesylate (STI571)] :: 2
COC(=O)N[C@H](C(=O)N1CCC[C@H]1C(=O)Nc1ccc([C@@H]2CC[C@@H](c3ccc(NC(=O)[C@@H]4CCCN4C(=O)[C@@H](NC(=O)OC)C(C)C)cc3)N2c2ccc(C(C)(C)C)cc2)cc1)C(C)C [Ombitasvir (ABT-267)] :: 1.76

The molecule CC(=O)[C@@]1(O)CC[C@H]2[C@@H]3C[C@H](C)C4=CC(=O)C=C[C@]4(C)[C@@]3(F)[C@@H](O)C[C@@]21C [Fluorometholone] showed Euclidean distance equal to 2.59

The molecule CC(C)CCCCC(=O)N[C@@H](CCN)C(=O)N[C@H](C(=O)N[C@@H](CCN)C(=O)N[C@H]1CCNC(=O)[C@H]([C@@H](C)O)NC(=O)[C@H](CCN)NC(=O)[C@H](CCN)NC(=O)[C@H](CC(C)C)NC(=O)[C@@H](Cc2ccccc2)NC(=O)[C@H](CCN)NC1=O)[C@@H](C)O [Polymyxin B sulphate] showed Euclidean distance equal to 0.815

The molecule CN(C)CCN(Cc1ccccc1)c1ccccn1 [Tripelennamine HCl] showed Euclidean distance equal to 0.863

The molecule CCC(=O)O[C@H]1[C@H](O[C@@H]2[C@@H](C)[C@H](O[C@H]3C[C@@](C)(OC)[C@@H](O)[C@H](C)O3)[C@@H](C)C(=O)O[C@H](CC)[C@@](C)(O)[C@H](O)[C@@H](C)C(=O)[C@H](C)C[C@@]2(C)O)O[C@H](C)C[C@@H]1N(C)C [Erythromycin estolate] showed Euclidean distance equal to 1.04

The molecule CC1(C)CC[C@]2(NC(=O)C(C)(F)F)CC[C@]3(C)[C@H](C(=O)C=C4[C@@]5(C)C=C(C#N)C(=O)C(C)(C)[C@@H]5CC[C@]43C)[C@@H]2C1 [Omaveloxolone (RTA-408)] showed Euclidean distance equal to 4.96

The molecule O=C(NOC[C@H](O)CO)c1ccc(F)c(F)c1Nc1ccc(I)cc1F showed Euclidean distance equal to 2.57

The molecule CCCc1nn(C)c2c(=O)[nH]c(-c3cc(S(=O)(=O)N4CCN(C)CC4)ccc3OCC)nc12 [Sildenafil Mesylate] showed Euclidean distance equal to 0.763

The molecule OC(CCN1CCCCC1)(c1ccccc1)C1CC2C=CC1C2 (stereo not drawn) [Biperiden HCl] showed Euclidean distance equal to 0.662

The molecule Cc1ccc(-c2cc(C(F)(F)F)nn2-c2ccc(S(N)(=O)=O)cc2)cc1 [Celecoxib] showed Euclidean distance equal to 1.23

Where do these numbers come from? They come from the supplement of paper PMC10127200.
